Where do the numbers come from? From patent US20150140169.

Subject of test: T1, alpha-s1 casein from Bos taurus
T1 chain: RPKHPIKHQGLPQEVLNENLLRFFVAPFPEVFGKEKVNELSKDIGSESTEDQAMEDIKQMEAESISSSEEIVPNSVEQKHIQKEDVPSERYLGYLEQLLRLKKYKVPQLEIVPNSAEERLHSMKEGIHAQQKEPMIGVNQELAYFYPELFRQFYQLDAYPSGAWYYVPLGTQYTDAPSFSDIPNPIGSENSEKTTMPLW
Readout kind: αs1 CN, 24 hours, 11° C. (Volume)
Kindly answer with a numeric value in Volume, unit omitted.

camel chymosin variant #138 (F223E) (protein) GKVAREPLTSYLDSQYFGKIYIGTPPQEFTVVFDTGSSDLWVPSIYCKSNVCKNHHRFDPRKSSTFRNLGKPLSIHYGTGSMEGFLGYDTVTVSNIVDPNQTVGLSTEQPGEVFTYSEFDGILGLAYPSLASEYSVPVFDNMMDRHLVARDLFSVYMDRNGQGSMLTLGAIDPSYYTGSLHWVPVTLQQYWQFTVDSVTINGVAVACVGGCQAILDTGTSVLEGPSSDILKIQMAIGATENRYGEFDVNCGNLRSMPTVVFEINGRDYPLSPSAYTSKDQGFCTSGFQGDNNSELWILGDVFIREYYSVFDRANNRVGLAKAI | 1.74e+07

Query :: αs1 CN, 24 hours, 11° C. lookup needed for camel chymosin variant #142 (F223Q) (protein) GKVAREPLTSYLDSQYFGKIYIGTPPQEFTVVFDTGSSDLWVPSIYCKSNVCKNHHRFDPRKSSTFRNLGKPLSIHYGTGSMEGFLGYDTVTVSNIVDPNQTVGLSTEQPGEVFTYSEFDGILGLAYPSLASEYSVPVFDNMMDRHLVARDLFSVYMDRNGQGSMLTLGAIDPSYYTGSLHWVPVTLQQYWQFTVDSVTINGVAVACVGGCQAILDTGTSVLQGPSSDILKIQMAIGATENRYGEFDVNCGNLRSMPTVVFEINGRDYPLSPSAYTSKDQGFCTSGFQGDNNSELWILGDVFIREYYSVFDRANNRVGLAKAI , thanks.
Result :: 1.02e+07
